Each recorded value in this set is attributed to ChEMBL document CHEMBL3507680.

# ASSAY DETAILS: Human HepG2 cell viability assay in 384 well format
# Type: toxicity, cell-based
# Design: dose 125 nL, time 70.5 hour; concentration not given beside the values
# MEASUREMENT CONDITIONS: HepG2 cells, read-out: Inhibition
PARAMETER: cytotoxicity at 70.5 h

CCc1nc(CN(C)C(=O)C2CCC(=O)N(CC3CCCCC3)C2)no1 (configuration not stated)    -4.07%

[in] Answer with reported cytotoxicity at 70.5 h of CN1CC2(CCN(C(=O)c3ccc(-n4cnnc4)cc3Cl)CC2)OC1=O
[out] -4.9%

[in] Answer with reported cytotoxicity at 70.5 h of O=C(c1nc2sccn2c1-c1ncc[nH]1)N1CCCCC1
[out] -17.8%

[in] Answer with reported cytotoxicity at 70.5 h of C[C@@H]1CN(Cc2ccc(-c3ccncc3)cc2F)CC(C(N)=O)O1 (some centres not stated)
[out] -0.906%

###

# ASSAY DETAILS: Human HepG2 cell viability assay in 384 well format
# Format: toxicity, cell-based
# Design: dose 125 nL, time 70.5 hour; concentration not given beside the values
# MEASUREMENT CONDITIONS: HepG2 cells, read-out: Inhibition
PARAMETER: cytotoxicity at 70.5 h (%)
// return numeric value only (unit: %, not printed)

Guide cases for cytotoxicity at 70.5 h, answers given:
O=C(c1ccncc1)N1CCOC2(COCCN(c3cccnc3)C2)C1 (stereo unspecified)    -8.51
O=C(O)CCn1ccc2c(nnc3c(-c4ccc(F)cc4)cnn32)c1=O    -24.9

[in] Answer with reported cytotoxicity at 70.5 h of Cc1cc(C(=O)O)cc(S(=O)(=O)Nc2ccc3c(c2)OCO3)c1C
[out] 20.2

[in] Answer with reported cytotoxicity at 70.5 h of Cc1ccc(CC2COCCN(Cc3ccccc3)C2)nc1 (stereo unspecified)
[out] -2.48

###

# ASSAY DETAILS: Human HepG2 cell viability assay in 384 well format
# Format: toxicity, cell-based
# Set-up: dose 125 nL, time 70.5 hour; concentration not given beside the values
# MEASUREMENT CONDITIONS: HepG2 cells, read-out: Inhibition
Known cytotoxicity at 70.5 h of a selection of compounds
// return numeric value only (unit: %, not printed)

Cc1nnc(NC(=O)NCc2ccnc(N(C)C)c2)s1    1.13
CCOC(=O)CCC(=O)N1CC(c2nc(Cc3ccccc3)no2)C1    -6.9
Nc1ncc(-c2csc(NC(=O)C[C@H]3COCCN3)n2)cn1    -6.96
Cc1cc(CN2CCN(C(c3ccccc3)c3ccccc3)CC2)no1    1.19
CCN(CC1CCOC1)C(=O)c1ccc(-c2ccsc2)nc1C (configuration not stated)    -7.65
Cc1nc(CN2CCCC(NCc3ccc4ccccc4c3)C2)no1 (configuration not stated)    -6.48
CCCC(=O)N1Cc2ccccc2CC2(CCN(C)C2)C1 (configuration not stated)    22.5
N#Cc1cccnc1N1CCN(C(=O)CCC(=O)c2cccs2)CC1    14.6

[in] Answer with reported cytotoxicity at 70.5 h of CCC1C=CCN1C(=O)c1cc(COc2ccccc2OC)[nH]n1 (configuration not stated)
[out] -11.7

[in] Answer with reported cytotoxicity at 70.5 h of CNC(=O)CCN1CCCCCC1c1ccc(C)o1 (configuration not stated)
[out] 13.3

###

# ASSAY DETAILS: Human HepG2 cell viability assay in 384 well format
# Format: toxicity, cell-based
# Design: dose 125 nL, time 70.5 hour; concentration not given beside the values
# MEASUREMENT CONDITIONS: HepG2 cells, read-out: Inhibition
PARAMETER: cytotoxicity at 70.5 h (%)
// return numeric value only (unit: %, not printed)

Guide cases for cytotoxicity at 70.5 h, answers given:
O=C1NCC[C@]12CN(Cc1ccoc1)C[C@H]2c1ccccc1    16.2
COCc1ccccc1NC(=O)NCc1ccc(OCC2CC2)nc1    -7.17
COCc1n[nH]c2c1CN(C(=O)c1ccncc1)C2    -10.2
O=C(c1nc(=O)[nH][nH]1)N1CCC2(CCCCC2)C1    20.2

[in] Answer with reported cytotoxicity at 70.5 h of COCCn1ccnc1C1CCN(C(=O)CSc2nnc(C)o2)CC1
[out] 9.15

[in] Answer with reported cytotoxicity at 70.5 h of CC(C)[C@]1(O)CN(C(=O)C2(Cn3cccn3)CC2)C[C@H]1C
[out] -7.77

[in] Answer with reported cytotoxicity at 70.5 h of CCC(CO)N(Cc1ccsc1)Cc1ccccc1C#N (stereo unspecified)
[out] -11.3

[in] Answer with reported cytotoxicity at 70.5 h of COc1ccccc1N1CCC(CNS(=O)(=O)c2cccs2)C1 (stereo unspecified)
[out] -6.04

[in] Answer with reported cytotoxicity at 70.5 h of C[C@H]1CN(C)C[C@@]12COCCN(C(=O)Cc1ccccc1)C2
[out] 0.777

[in] Answer with reported cytotoxicity at 70.5 h of CN(Cc1cccnc1)Cc1cn2c(n1)CN(C1CCOC1)CC2 (stereo unspecified)
[out] -6.14

###

Known cytotoxicity at 70.5 h of a selection of compounds
# ASSAY DETAILS: Human HepG2 cell viability assay in 384 well format
# Format: toxicity, cell-based
# Design: dose 125 nL, time 70.5 hour; concentration not given beside the values
# MEASUREMENT CONDITIONS: HepG2 cells, read-out: Inhibition
// return numeric value only (unit: %, not printed)

CN1CCC(N(C)CCC(=O)N2CCN(Cc3cccc(F)c3)CC2)C1 (stereo unspecified)    -0.236
Cc1ccc(C(=O)NCc2cccnc2N(C)C)s1    -10.9
O=C(c1nn[nH]c1Nc1ccc(Cl)cc1)N1CCCCCC1    -10.3
CC(C)CCN1CCC2(CCCN(c3nncs3)C2)C1 (stereo unspecified)    -5.61
Cc1ncc(CNCC2CCCN2c2cccnn2)s1 (stereo unspecified)    -19.7

// next item, cytotoxicity at 70.5 h requested
[in] Answer with reported cytotoxicity at 70.5 h of Cc1cc(C(=O)N(C)C(C)CC(C)C)on1 (stereo unspecified)
[out] -1.57

###

# ASSAY DETAILS: Human HepG2 cell viability assay in 384 well format
# Assay type: toxicity, cell-based
# Set-up: dose 125 nL, time 70.5 hour; concentration not given beside the values
# MEASUREMENT CONDITIONS: HepG2 cells, read-out: Inhibition
PARAMETER: cytotoxicity at 70.5 h (%)
// return numeric value only (unit: %, not printed)

Guide cases for cytotoxicity at 70.5 h, answers given:
CC(C)Oc1cccc(C(=O)C2CCCN(C(=O)c3ncn[nH]3)C2)c1 (stereo not given)    -9.49
Fc1cccc(Cl)c1CNCCCOc1ccccn1    -3.63
CNS(=O)(=O)c1cccc(CNC(=O)c2c(C)nn(C)c2C)c1    -3.24

[in] Answer with reported cytotoxicity at 70.5 h of Cc1nc(CN2CCC(C(=O)O)(n3ccc(C(C)C)n3)CC2)co1
[out] -0.222

[in] Answer with reported cytotoxicity at 70.5 h of CCN1CCC(CC(=O)NCCc2nc(O)cc(O)n2)CC1
[out] 16.1

[in] Answer with reported cytotoxicity at 70.5 h of Cc1ccc(S(=O)(=O)N2C[C@H]3C[C@H](NC(=O)c4ccn(C)n4)[C@H]3C2)cc1
[out] 1.44

[in] Answer with reported cytotoxicity at 70.5 h of CN1C(=O)C2(CCN(Cc3nccn3C)CC2)c2ccccc21
[out] -4.36

[in] Answer with reported cytotoxicity at 70.5 h of CC(C)c1nc2n(n1)CC(Nc1ncnc3ccccc13)CC2 (stereo not given)
[out] -13

[in] Answer with reported cytotoxicity at 70.5 h of N#Cc1ccnc(SCC2CN=C(N3CCOCC3)S2)c1 (stereo not given)
[out] 2.81

[in] Answer with reported cytotoxicity at 70.5 h of COc1ccccc1CC1CCCN(C(=O)c2nccnc2N)C1 (stereo not given)
[out] -6.5

###

# ASSAY DETAILS: Human HepG2 cell viability assay in 384 well format
# Format: toxicity, cell-based
# Parameters: dose 125 nL, time 70.5 hour; concentration not given beside the values
# MEASUREMENT CONDITIONS: HepG2 cells, read-out: Inhibition
PARAMETER: cytotoxicity at 70.5 h (%)
// return numeric value only (unit: %, not printed)

Guide cases for cytotoxicity at 70.5 h, answers given:
CN(Cc1nnc(C2CC2)o1)C1CCN(CCCc2cnn(C)c2)C1 (stereo not drawn)    6.71
O=C(Cc1ccccc1)N1CCN(Cc2noc(C3CC3)n2)CC1    -1.85
O=C(NCC(F)(F)F)C1CCCN(Cc2ccno2)C1 (stereo not drawn)    -3.85
O=S(=O)(C1CC1)N1CCc2ncc(Cn3cncn3)n2CC1    -3.06
O=C1CCCN1Cc1nnc(SCc2ccc3c(c2)CCC3)o1    9.34

[in] Answer with reported cytotoxicity at 70.5 h of O=C1CC(c2ccc(Cl)c(Cl)c2)c2c(n3ccsc3nc2=O)N1 (stereo not drawn)
[out] 10

[in] Answer with reported cytotoxicity at 70.5 h of CN(CC1CCC1)C(=O)c1ccc(-c2nc(C3CC3)n[nH]2)cc1
[out] -8.67

[in] Answer with reported cytotoxicity at 70.5 h of CCc1nc2c(c(N3CCOCC3)n1)CCN(C(=O)c1ccon1)CC2
[out] 6.74

[in] Answer with reported cytotoxicity at 70.5 h of CCn1ccnc1CN1CCCN(C(=O)c2cncnc2C)CC1
[out] 0.803

[in] Answer with reported cytotoxicity at 70.5 h of Cc1nc(CC(C)C)sc1C(=O)N1CCC(C2(C)OCCO2)CC1
[out] 2.11

[in] Answer with reported cytotoxicity at 70.5 h of COc1ccc2nc(CNC(=O)c3cc(C(C)C)no3)[nH]c2c1
[out] 39.1

[in] Answer with reported cytotoxicity at 70.5 h of O=C(COCC1CC1)N1CCCC(n2ccnc2)C1 (stereo not drawn)
[out] 5.1

[in] Answer with reported cytotoxicity at 70.5 h of Cc1nc([C@H]2C[C@@H]3CCN(C(=O)c4ccnnc4)C[C@H]3O2)sc1C
[out] -0.727
